The reported numbers originate from paper PMC8624133.

tested on: C. glabrata; format: cell-based, Candida glabrata
Metric name: I (intermediate) isolates, n (%)

Request: Read off the recorded I (intermediate) isolates, n (%) for C[C@@H](c1ncncc1F)[C@](O)(Cn1cncn1)c1ccc(F)cc1F [voriconazole]
Response: 2 (2.8%)

====

test system: Other species of Candida; type: cell-based, Candida spp.
Metric name: S (sensitive) isolates, n (%)

Below, 2 compounds whose answers are already recorded.
{"columns": ["Structure smiles string", "Test system", "Experimental value"],
 "data": [
  ["CC[C@H](C)C[C@H](C)CCCCCCCCC(=O)N[C@H]1C[C@@H](O)[C@@H](NCCN)NC(=O)[C@@H]2[C@@H](O)CCN2C(=O)[C@H]([C@H](O)CCN)NC(=O)[C@H]([C@H](O)[C@@H](O)c2ccc(O)cc2)NC(=O)[C@@H]2C[C@@H](O)CN2C(=O)[C@H]([C@@H](C)O)NC1=O", "Other species of Candida", "18 (100%)"],
  ["Nc1nc(=O)[nH]cc1F", "Other species of Candida", "26 (100%)"]
]}

Consider the additional compound presented here.
Request: System Other species of Candida. Read-out S (sensitive) isolates, n (%). Item C[C@@H](c1ncncc1F)[C@](O)(Cn1cncn1)c1ccc(F)cc1F . Report value.
Response: 26 (100%)

====

system: C. albicans; format: cell-based, Candida albicans
Starred links: 1 amine or outer side, 2 acyl side, 3 side chain; linkers in the order of their positions; H or OH if unused. Positions of bridges follow the written chain, without caps; N, C: chain ends. Non-standard residues stand in square brackets, D forms with d. Residues, ends and D or L forms follow the SMILES beside them. *: point of attachment. hTyr(3S-OH,4S-OH,3'-OSO3H) = N[C@H](C(=O)O)[C@H](O)[C@@H](O)c1ccc(O)c(OS(=O)(=O)O)c1; Orn(4R-OH,5R-OH) = O=C([C@H](C[C@@H](O)[C@@H](O)N[*:3])N[*:1])[*:2]; Pro(3S-OH,4S-Me) = C[C@H]1CN[C@H](C(=O)O)[C@H]1O; X1 = CCCCCOc1ccc(-c2cc(-c3ccc(C(=O)*)cc3)no2)cc1; Gln(3R-OH) = NC(=O)C[C@@H](O)[C@H](N)C(=O)O; Hyp = O=C(O)[C@@H]1C[C@@H](O)CN1
Metric name: I (intermediate) isolates, n (%)

{"columns": ["Compound", "Metric name", "Experimental value"],
 "data": [
  ["OC(Cn1cncn1)(Cn1cncn1)c1ccc(F)cc1F", "I (intermediate) isolates, n (%)", "0 (0%)"]
]}

Now turn to the next compound.
Request: Return I (intermediate) isolates, n (%) for the following compound: CCCCCOc1ccc(-c2cc(-c3ccc(C(=O)N[C@H]4C[C@@H](O)[C@@H](O)NC(=O)[C@@H]5[C@@H](O)[C@@H](C)CN5C(=O)[C@H]([C@H](O)CC(N)=O)NC(=O)[C@H]([C@H](O)[C@@H](O)c5ccc(O)c(OS(=O)(=O)O)c5)NC(=O)[C@@H]5C[C@@H](O)CN5C(=O)[C@H]([C@@H](C)O)NC4=O)cc3)no2)cc1 [micafungin] (X1-[Orn(4R-OH,5R-OH)]T[Hyp][hTyr(3S-OH,4S-OH,3'-OSO3H)][Gln(3R-OH)][Pro(3S-OH,4S-Me)]; lactam 1-C)
Response: 1 (0.7%)

====

system: C. albicans; format: cell-based, Candida albicans
Starred links: 1 amine or outer side, 2 acyl side, 3 side chain; linkers in the order of their positions; H or OH if unused. Positions of bridges follow the written chain, without caps; N, C: chain ends. Non-standard residues stand in square brackets, D forms with d. Residues, ends and D or L forms follow the SMILES beside them. *: point of attachment. hTyr(3S-OH,4S-OH,3'-OSO3H) = N[C@H](C(=O)O)[C@H](O)[C@@H](O)c1ccc(O)c(OS(=O)(=O)O)c1; Orn(4R-OH,5R-OH) = O=C([C@H](C[C@@H](O)[C@@H](O)N[*:3])N[*:1])[*:2]; Pro(3S-OH,4S-Me) = C[C@H]1CN[C@H](C(=O)O)[C@H]1O; X1 = CCCCCOc1ccc(-c2cc(-c3ccc(C(=O)*)cc3)no2)cc1; Gln(3R-OH) = NC(=O)C[C@@H](O)[C@H](N)C(=O)O; Hyp = O=C(O)[C@@H]1C[C@@H](O)CN1
Metric name: R (resistant) isolates, n (%)

Solved cases (3 shown):
{"columns": ["Compound", "R (resistant) isolates, n (%)"],
 "data": [
  ["Nc1nc(=O)[nH]cc1F [5-FC, 5-flucytosine]", "2 (1%)"],
  ["CC[C@H](C)C[C@H](C)CCCCCCCCC(=O)N[C@H]1C[C@@H](O)[C@@H](NCCN)NC(=O)[C@@H]2[C@@H](O)CCN2C(=O)[C@H]([C@H](O)CCN)NC(=O)[C@H]([C@H](O)[C@@H](O)c2ccc(O)cc2)NC(=O)[C@@H]2C[C@@H](O)CN2C(=O)[C@H]([C@@H](C)O)NC1=O [caspofungin]", "0 (0%)"],
  ["OC(Cn1cncn1)(Cn1cncn1)c1ccc(F)cc1F [fluconazole]", "3 (1.5%)"]
]}

Now consider the entry below.
Request: State, in one line, measured R (resistant) isolates, n (%) of CCCCCOc1ccc(-c2cc(-c3ccc(C(=O)N[C@H]4C[C@@H](O)[C@@H](O)NC(=O)[C@@H]5[C@@H](O)[C@@H](C)CN5C(=O)[C@H]([C@H](O)CC(N)=O)NC(=O)[C@H]([C@H](O)[C@@H](O)c5ccc(O)c(OS(=O)(=O)O)c5)NC(=O)[C@@H]5C[C@@H](O)CN5C(=O)[C@H]([C@@H](C)O)NC4=O)cc3)no2)cc1 [micafungin] (X1-[Orn(4R-OH,5R-OH)]T[Hyp][hTyr(3S-OH,4S-OH,3'-OSO3H)][Gln(3R-OH)][Pro(3S-OH,4S-Me)]; lactam 1-C)
Response: 1 (0.7%)

====

system: C. auris; assay: CLSI M27-A3 broth microdilution; assay type: cell-based, Candida auris; details: 256–16 μg/mL tested, duplicate at two times
Metric name: GM MIC (≥90% reduction of visible growth) (µg/mL)
# output: bare number, implied unit µg/mL

Record excerpt, results attached:
{"columns": ["Compound", "Experimental value"],
 "data": [
  ["Cc1ccc(C(C)C)c(O)c1 [thymol]", 104],
  ["Cc1ccc(C(C)C)cc1O [carvacrol]", 215.3]
]}

Request: Provide C. auris GM MIC (≥90% reduction of visible growth) reading for C=C(C)[C@H]1CC=C(C)CC1 [D-limonene] .
Response: 20.39

Request: Give GM MIC (≥90% reduction of visible growth); test system C. auris; compound Cc1ccc(C(C)C)cc1 [p-cymene]
Response: 215.3

====

test system: azole-resistant A. fumigatus SS clinical strains; assay: EUCAST E.DEF 9.3.2; format: cell-based; conditions: Aspergillus fumigatus, strain from pleural fluid of an ICU patient, no mutations in cyp51A
Metric name: MIC (µg/mL)
# value in µg/mL; strip the unit string

{"columns": ["Structure smiles string", "Unit spec", "Experimental value"],
 "data": [
  ["C[C@@H](c1ncncc1F)[C@](O)(Cn1cncn1)c1ccc(F)cc1F", "µg/mL", 1],
  ["C[C@@H](c1nc(-c2ccc(C#N)cc2)cs1)[C@](O)(Cn1cncn1)c1cc(F)ccc1F", "µg/mL", 1]
]}

Here is the next item to consider.
Request: Read the entry CC[C@@H]([C@H](C)O)n1ncn(-c2ccc(N3CCN(c4ccc(OC[C@@H]5CO[C@@](Cn6cncn6)(c6ccc(F)cc6F)C5)cc4)CC3)cc2)c1=O and write its reported MIC.
Response: 0.5

====

Item-by-item account of MIC
system: C. auris clinical strains; assay: organism not typed; assay type: cell-based, Candida auris; details: range, 78 strains from patients with COVID-19
Starred links: 1 amine or outer side, 2 acyl side, 3 side chain; linkers in the order of their positions; H or OH if unused. Positions of bridges follow the written chain, without caps; N, C: chain ends. Non-standard residues stand in square brackets, D forms with d. Residues, ends and D or L forms follow the SMILES beside them. *: point of attachment. pTerphenylCO(4''-OnC5H11) = CCCCCOc1ccc(-c2ccc(-c3ccc(C(=O)*)cc3)cc2)cc1; Orn(4R-OH,5R-OH) = O=C([C@H](C[C@@H](O)[C@@H](O)N[*:3])N[*:1])[*:2]; hTyr(3S-OH,4S-OH) = N[C@H](C(=O)O)[C@H](O)[C@@H](O)c1ccc(O)cc1; Pro(3S-OH,4S-Me) = C[C@H]1CN[C@H](C(=O)O)[C@H]1O; Hyp = O=C(O)[C@@H]1C[C@@H](O)CN1

A selection of reference data follows.
{"columns": ["Molecule", "Metric name", "Experimental value"],
 "data": [
  ["CCCCCOc1ccc(-c2ccc(-c3ccc(C(=O)N[C@H]4C[C@@H](O)[C@@H](O)NC(=O)[C@@H]5[C@@H](O)[C@@H](C)CN5C(=O)[C@H]([C@@H](C)O)NC(=O)[C@H]([C@H](O)[C@@H](O)c5ccc(O)cc5)NC(=O)[C@@H]5C[C@@H](O)CN5C(=O)[C@H]([C@@H](C)O)NC4=O)cc3)cc2)cc1 [anidulafungin] ({pTerphenylCO(4''-OnC5H11)}-[Orn(4R-OH,5R-OH)]T[Hyp][hTyr(3S-OH,4S-OH)]T[Pro(3S-OH,4S-Me)]; lactam 1-C)", "MIC", "0.015 to 8 µg/mL"],
  ["Nc1[nH]c(=O)ncc1F", "MIC", "0.06 to 0.12 µg/mL"],
  ["C[C@@H](c1ncncc1F)[C@](O)(Cn1cncn1)c1ccc(F)cc1F", "MIC", "0.06 to 8 µg/mL"]
]}

Request: Supply measured MIC of CC[C@H](C)C[C@H](C)CCCCCCCCC(=O)N[C@H]1C[C@@H](O)[C@@H](NCCN)NC(=O)[C@@H]2[C@@H](O)CCN2C(=O)[C@H]([C@H](O)CCN)NC(=O)[C@H]([C@H](O)[C@@H](O)c2ccc(O)cc2)NC(=O)[C@@H]2C[C@@H](O)CN2C(=O)[C@H]([C@@H](C)O)NC1=O in your reply.
Response: 0.06 to 1 µg/mL
